- Tested on: SK-MEL-5 melanoma
- experimental_protocol: NCI-60 one-dose screen, 48 h
- test_context: 10 µM unless noted
Compounds without any hit were thinned out: in the full panel of roughly 83,000, 20% have a hit. Active and inactive are the calls of the source. How the source made its calls: active means growth percent below 10; inactive means the rest.
Write down one outcome, taken from y = active, n = inactive

>  <compound>
CCC(=O)Oc1cc(Cl)c(Cl)cc1Cl

>  <test_target>
SK-MEL-5 melanoma

>  <classification>
n

$$$$
>  <compound>
COc1ccc(C(c2cc(OC)c(OC)c(OC)c2)n2ccnc2)cc1O (stereo unspecified)

>  <test_target>
SK-MEL-5 melanoma

>  <classification>
y

$$$$
>  <compound>
COC(=O)N/N=C/c1c[n+]([O-])c2ccccc2[n+]1[O-]

>  <test_target>
SK-MEL-5 melanoma

>  <classification>
n

$$$$
>  <compound>
CN(C)CCNc1ncc(F)c(-c2cnc3cc(-c4cnn(C)c4)ccn23)n1

>  <test_target>
SK-MEL-5 melanoma

>  <classification>
n

$$$$

# input What is the recorded call for this compound in the test? `Cc1ccc(C(=O)Nc2nc3c(s2)CN(Cc2ccccc2)CC3)cn1`
# output n

# input Per the records of this test, what outcome belongs to `CCOC(=O)c1ccc(Nc2ncnc3c2cnn3-c2cccc(F)c2)cc1` ?
# output n

# input Tell me the recorded outcome of this test for `CCOC(=O)C(=Cc1ccc(C#N)cc1)C(=O)OCC` .
# output n

# input # lookup: test call for `COc1ccc(C/C(C)=C(/c2ccc(OCCN3CCCCCC3)cc2)c2ccc(OC(=O)c3ccccc3)cc2)cc1`
# output n

# input Dear all, I need the recorded test outcome for `Nc1nc2ccccc2c2c(=O)c3ccc(Cl)cc3sc12` , thank you.
# output n

# input What did this assay record as the result for CC1(Cc2ccccc2)CC2=C(C(=O)O1)C(c1ccccc1)NC(=O)N2 (stereo unspecified) ?
# output n

# input Test call, this compound: `CN1Cn2c(ccc2C(F)(F)F)C(=O)CS1(=O)=O`
# output n

# input Recorded test outcome, item Nc1nc(N)c2c(n1)NC(c1cccc(Nc3ccnc4cc(C(F)(F)F)ccc34)c1)CC(c1ccc(F)cc1)=N2 (stereo unspecified)
# output n

# input Outcome? CN(Cc1ccccc1)c1nc(Cl)c(C2CC(c3ccc(F)cc3)=NN2C=O)s1 (stereo unspecified)
# output n

# input Kindly provide the recorded test outcome for the following compound: `C=C(C)[C@@H]1CC[C@]2(C)[C@H](CC(=O)N[C@H]3[C@@H]4C[C@](C)(C(=O)OC)CC[C@]4(C)CC[C@]32C)[C@@]1(C)CCC#N`
# output n

# input Please let me know the test result on file for `CCOC(=O)c1nc2c3ccccc3cnn2c1C(=O)c1ccc(OC)cc1` .
# output n

====

- System: T-47D breast
- experimental_protocol: NCI-60 one-dose screen, 48 h (100 = growth as untreated, 0 = no growth, -100 = all killed)
- test_context: 10 µM unless noted
About 83,000 compounds went through this panel and 20% of them were active in at least one assay; those are over-represented in the sample as a whole.
Classification field: enter class 1 for growth values not below 30%, class 0 for values below it.

>  <compound>
O=C(CCCOc1ccc(Br)cc1)Nc1ncc(Cc2ccc(F)cc2)s1

>  <classification>
class 1

$$$$
>  <compound>
CN1CCN(c2ccc(/C=C/C(=O)c3ccc(O)cc3)cc2)CC1

>  <classification>
class 1

$$$$
>  <compound>
C=C(CNCCO)[C@@H]1CC[C@]2(CO)CC[C@]3(C)[C@H](CC[C@@H]4[C@@]5(C)CCC(NCCc6ccc(O)cc6)C(C)(C)[C@@H]5CC[C@]43C)[C@@H]12 (some centres undefined)

>  <classification>
class 0

$$$$
>  <compound>
O=C(/C=C/C12c3ccccc3C(c3ccccc31)C1C(=O)NC(=O)C12)c1ccncc1 (centres undefined)

>  <classification>
class 0

$$$$
>  <compound>
Cc1ccc(-c2nc([P+](c3ccccc3)(c3ccccc3)c3ccccc3)c(Nc3ccccc3)o2)cc1

>  <classification>
class 0

$$$$
>  <compound>
Nc1ccc(-c2nc3ccc4[nH]ncc4c3c3c2CCCC3)cc1F

>  <classification>
class 0

$$$$
>  <compound>
O=C(Nc1ncc(Cc2cccc(C(F)(F)F)c2)s1)c1ccc2c(c1)OCCO2

>  <classification>
class 1

$$$$
>  <compound>
CCN(CC)CC(=O)Nc1ccc2ncnc(Nc3ccc(Oc4cccc(F)c4)c(Cl)c3)c2c1

>  <classification>
class 1

$$$$

# input Does the reported growth for COc1ccc2nc3cc(Cl)ccc3c(NCCCNCCC(C)O)c2c1 (centres undefined) fall at or above the 30% mark?
# output class 0

# input Entry CCCN1C(=O)/C(=c2\sc3n(c2=O)NC2C(N=3)N(CC)C(=O)N2CC)c2ccccc21 (centres undefined) : is its growth no less than 30%?
# output class 0

# input Hi, just wondering whether `[Cu+].[NH-][C@H]1C[N-]C(=O)[C@H]([C@H]2CCN=C(N)N2)[N-]C(=O)/C(=C\NC(N)=O)[N-]C(=O)[C@H](CNC(=O)C[C@@H](N)CCCN)[N-]C(=O)[C@H](CO)[N-]C1=O` shows growth of 30% or higher.
# output class 1

# input Decide: is the reported value of growth for `COc1ccc(S(=O)(=O)Nc2cc(Sc3cccc4cccnc34)c(O)c3ccccc23)cc1` equal to or greater than 30%?
# output class 0

# input Is growth for `Cc1cccc(-c2nnc(SCC(=O)Nc3ncc(Cc4ccccc4)s3)n2N2C(=O)CSC2=S)c1` at or above 30%?
# output class 1

# input Textbook exercise: given the entry CCCCC(NC(=O)CN1C(=O)/C(=C/C(C)=C/c2ccccc2)SC1=S)C(=O)O (centres undefined) , state whether its growth is greater than or equal to 30%.
# output class 1

# input Given `CN1CCN(C(=O)OCc2nc3c(N4CCOCC4)nc(Cl)nc3n2C)CC1` , state whether its growth is at least 30%.
# output class 0

# input Check if growth >= 30% (inclusive). Item: `COC(=O)[C@H]1Cc2c([nH]c3ccccc23)[C@@H](c2cccs2)N1`
# output class 1

# input Record `COc1ccc(Cn2cc(C(=O)Nc3cccnc3Nc3ccccc3)nn2)cc1` ; criterion: growth no lower than 30%. Met?
# output class 1

# input Is it the case that `O=C(CCl)n1nnnc1Cc1ccccc1` has growth reaching or exceeding 30%?
# output class 1

# input Please check the record `CCOC(=O)c1ccc(Nc2ncnc3c2cnn3-c2cccc(F)c2)cc1` and state if its growth is at or above 30%.
# output class 1

====

- Test system: SK-MEL-2 melanoma
- experimental_protocol: NCI-60 one-dose screen, 48 h
- test_context: 10 µM unless noted
This is part of a sample that, as a whole, favours compounds with a hit. Of some 83,000 tested, about 20% had one in any assay. Calls of active or inactive are those of the source. The calls were made as follows: active = growth percent below 10; inactive = the rest.
Output constraint: value belongs to 1 (active), 0 (inactive)

>  <molecule>
CCN(CC)CC(=O)Nc1ccc2ncnc(Nc3ccc(Oc4cccc(F)c4)c(Cl)c3)c2c1

>  <classification>
0

$$$$
>  <molecule>
CCN(c1cc(-c2ccc(CN3CCC(/C=C/S(=O)(=O)c4ccccc4)CC3)cc2)cc(C(=O)NCc2c(C)cc(C)[nH]c2=O)c1C)C1CCOCC1

>  <classification>
0

$$$$
>  <molecule>
Cc1ccc(-c2nc3nc(-c4ccccc4)nc(N4CCN(S(=O)(=O)c5ccccc5)CC4)c3o2)cc1

>  <classification>
0

$$$$

# input Check the results log: what was the call for CCCCCO/N=C\c1c2c(O)c3c(O)c(C)c4c(c3c1O)C(=O)C(C)(O/C=C\C(OC)C(C)C(OC(C)=O)C(C)C(O)C(C)C(O)C(C)/C=C\C=C(\C)C(=O)N2)O4 (configuration not stated) ?
# output 1

====

- Tested on: MCF7 breast
- experimental_protocol: NCI-60 one-dose screen, 48 h
- test_context: 10 µM unless noted
About 83,000 compounds went through this panel and 20% of them were active in at least one assay; those are over-represented in the sample as a whole. Activity calls are given as the source filed them. Rule for the calls: active = growth percent below 10; inactive = the rest.
Answer with one of the outcomes Y (active), N (inactive)

>  <compound>
O=c1cc(N/N=C/c2ccc(F)cc2)c2cc(Cl)ccc2[nH]1

>  <classification>
N

$$$$
>  <compound>
CN1CCN(c2ccc(/C=C/C(=O)c3ccc(O)cc3)cc2)CC1

>  <classification>
N

$$$$
>  <compound>
Cc1nc2sc(C(=O)Nc3cccc4ncccc34)c(N)c2cc1C(C)O (stereo not drawn)

>  <classification>
N

$$$$
>  <compound>
CC[C@]1(O)CC2CN(CCc3c([nH]c4ccccc34)C(C(=O)OC)(c3cc4c(cc3OC)N(C=O)[C@H]3[C@@](O)(C(=O)OC)[C@H](OC(C)=O)[C@]5(CC)[C@@H]6C[C@@H]6CN6CC[C@]43[C@@H]65)C2)C1 (stereo partly drawn)

>  <classification>
N

$$$$
>  <compound>
CS(=O)(=O)Nc1cc(-c2ccc3ncnc(Nc4ccc(F)c(Cl)c4)c3c2)cnc1Cl

>  <classification>
Y

$$$$
>  <compound>
O=C(Cn1cc(CN2CCN(c3ccnc4cc(Cl)ccc34)CC2)nn1)Nc1cccc([N+](=O)[O-])c1

>  <classification>
N

$$$$
>  <compound>
O=C(NCc1ccc(Cn2c(=O)sn(-c3ccc(Cl)cc3)c2=O)cc1)OCc1ccc2c(Cl)cc(Cl)c(O)c2n1

>  <classification>
N

$$$$

# input for lookup
# input Recorded call for CC(=O)N1N=C(c2ccc(Nc3nc(Nc4ccc(F)cc4)nc(Nc4ccc(F)cc4)n3)cc2)CC1c1ccccc1 (stereo not drawn) ?
# output N
